These entries and their values trace back to the supplement of paper PMC11061612.

# Bliss excess annotations
Test system: RERF-LC-Sq1 (Squamous Cell Lung Carcinoma);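 also: after 72 h of two-drug dosing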
procedure details: Bliss excess, mean over the matrix (fraction); higher = more synergy
// response body must contain only the number

[[record]]
compound = "CC1(C)CCC(CN2CCN(c3ccc(C(=O)NS(=O)(=O)c4ccc(NCC5CCOCC5)c([N+](=O)[O-])c4)c(Oc4cnc5[nH]ccc5c4)c3)CC2)=C(c2ccc(Cl)cc2)C1 [Venetoclax] + COc1cc(Nc2ncc3c(n2)-c2ccc(Cl)cc2C(c2c(F)cccc2OC)=NC3)ccc1C(=O)O [Alisertib] (first compound max 1 µM, 7x7, partner max 10 µM)"
readout_name = "Bliss excess"
reported_value = -0.0289

[[record]]
compound = "CN(C)CCCOc1ccc(-c2ccc3ncc4c(c3c2)n(C2CCOCC2)c(=O)n4C)cn1 [AZD0156] + O=C(c1cc(Cc2n[nH]c(=O)c3ccccc23)ccc1F)N1CCN(C(=O)C2CC2)CC1 [Olaparib] (first compound max 3 µM, partner max 3 µM)"
readout_name = "Bliss excess"
reported_value = 0.0396

[[record]]
compound = "CC(=O)Nc1cccc(-n2c(=O)n(C3CC3)c(=O)c3c(Nc4ccc(I)cc4F)n(C)c(=O)c(C)c32)c1 [Trametinib] + Cc1nc(-c2cn3c(n2)-c2ccc(-c4cnn(C(C)(C)C(N)=O)c4)cc2OCC3)n(C(C)C)n1 [Taselisib] (first compound max 1 µM, 7x7, partner max 10 µM)"
readout_name = "Bliss excess"
reported_value = 0.0906


Input line: Notebook: pull reported Bliss excess for RERF-LC-Sq1 (Squamous Cell Lung Carcinoma), entry Cc1c2c(nn1C)CSCc1cc(n(C)n1)CSc1cc(c3ccccc3c1)OCCCc1c(C(=O)O)n(C)c3c-2c(Cl)ccc13 [AZD5991] + C=CCn1c(=O)c2cnc(Nc3ccc(N4CCN(C)CC4)cc3)nc2n1-c1cccc(C(C)(C)O)n1 [AZD1775] (first compound max 1 µM, partner max 1 µM)
Output line: 0.0112

Input line: And Cc1nc(Nc2ncc(C(=O)Nc3c(C)cccc3Cl)s2)cc(N2CCN(CCO)CC2)n1 [Dasatinib] + CC(=O)Nc1cccc(-n2c(=O)n(C3CC3)c(=O)c3c(Nc4ccc(I)cc4F)n(C)c(=O)c(C)c32)c1 [Trametinib] (first compound max 2 µM, 7x7, partner max 1 µM) ?
Output line: -0.179

----------
Test system: MKN45 (Gastric Carcinoma)
procedure details: combination Emax (second highest fraction inhibited in the dose matrix, 72 h); higher = more inhibition; extreme values may be limits of the assay
readout name: combination Emax
Field format: numeric only.

In the examples that follow, each entry is paired with its recorded combination Emax.
[[record]]
compound = "CCN(CCO)CCCOc1ccc2c(Nc3cc(CC(=O)Nc4cccc(F)c4)[nH]n3)ncnc2c1 [AZD2811] + C[C@@H]1COCCN1C2=NC(=NC(=C2)C3(CC3)[S@](=N)(=O)C)C4=C5C=CNC5=NC=C4 [AZD6738] (first compound max 1 µM, 7x7, partner max 10 µM)"
readout_name = "combination Emax"
reported_value = 0.732

[[record]]
compound = "CS(=O)(=O)CCNCc1ccc(-c2ccc3ncnc(Nc4ccc(OCc5cccc(F)c5)c(Cl)c4)c3c2)o1 [Lapatinib] + C[C@@H](Oc1cc(-c2cnn(C3CCNCC3)c2)cnc1N)c1c(Cl)ccc(F)c1Cl [Crizotinib] (first compound max 10 µM, 7x7, partner max 10 µM)"
readout_name = "combination Emax"
reported_value = 0.913

[[record]]
compound = "CN(CCO)CC[C@H](CSc1ccccc1)Nc1ccc(S(=O)(=O)NC(=O)c2ccc(N3CCC([C@@H](O)c4ccccc4-c4ccc(Cl)cc4)CC3)cc2)cc1S(=O)(=O)C(F)(F)F [AZD4320] + Cn1cnc2c(F)c(Nc3ccc(Br)cc3Cl)c(C(=O)NOCCO)cc21 [Selumetinib] (first compound max 1 µM, 7x7, partner max 3 µM)"
readout_name = "combination Emax"
reported_value = 0.511


Input line: Need combination Emax of Cn1cnc2c(F)c(Nc3ccc(Br)cc3Cl)c(C(=O)NOCCO)cc21 [Selumetinib] + C=CCn1c(=O)c2cnc(Nc3ccc(N4CCN(C)CC4)cc3)nc2n1-c1cccc(C(C)(C)O)n1 [AZD1775] (first compound max 10 µM, partner max 1 µM) , thanks.
Output line: 0.8

Input line: Likewise for NC1(C(=O)N[C@@H](CCO)c2ccc(Cl)cc2)CCN(c2ncnc3[nH]ccc23)CC1 [Capivasertib] + Cn1cnc2c(F)c(Nc3ccc(Br)cc3Cl)c(C(=O)NOCCO)cc21 [Selumetinib] (first compound max 10 µM, 7x7, partner max 10 µM) ?
Output line: 0.705
